# Test system: A498 renal
# assay protocol: NCI tumour cell line growth inhibition, 48 h
test readout: log10 TGI (log10 of the value in µM)
Each number you see is log10 of TGI, and the unit inside the log is µM.

Annotate the molecule `N=C(N)SCc1ccc(N=C=S)cc1` with its measured log10 TGI.
1.43

Annotate the molecule `O=C1CCCN1CCCN=c1cc2n(-c3ccc(Cl)cc3)c3ccccc3nc-2cc1Nc1ccc(Cl)cc1` with its measured log10 TGI.
1.64

Annotate the molecule N#C/C(=C\c1cccc2cnccc12)N1N=NC2C=CC=CC21 (stereo unspecified) with its measured log10 TGI.
0.75

Annotate the molecule `Cc1cc(C)c2c(=O)cc(-c3ccc4ccccc4c3)[nH]c2n1` with its measured log10 TGI.
1.38

Annotate the molecule `CNC(=O)c1cc2c(Oc3ccc(NC(=S)NC(=O)Cc4ccccc4)cc3F)ccnc2cc1OC` with its measured log10 TGI.
0.64

Annotate the molecule `COc1ccc(-c2cc(-c3ccccc3)nc3c2CC(=O)Nc2ccccc2-3)cc1OC` with its measured log10 TGI.
1.70

Annotate the molecule `Cc1cc2c(cc1C)[n+](Cc1ccc3ccccc3n1)cn2Cc1ccc2ccccc2n1` with its measured log10 TGI.
0.37

Annotate the molecule `O=[N+]([O-])c1ccc(COc2cccc3cccnc23)cc1` with its measured log10 TGI.
1.90

Annotate the molecule `CN(C)c1ccc(/C=N/NC(=O)c2cccc3ccccc23)c(Cl)c1` with its measured log10 TGI.
0.80

Annotate the molecule COC(=O)[C@@H](OC)[C@@H]1Cc2cc3cc(OC4CC(OC5CC(O)C(O)C(C)O5)C(O)C(C)O4)c(C)c(O)c3c(O)c2C(=O)[C@H]1OC1CC(OC2CC(OC3CC(C)(O)C(O)C(C)O3)C(O)C(C)O2)C(O)C(C)O1 (stereo partly specified) with its measured log10 TGI.
-1.14

Annotate the molecule O=C(CC1C(=O)Nc2ccccc2S1(=O)=O)Nc1cccc(Cl)c1 (stereo unspecified) with its measured log10 TGI.
1.59

Annotate the molecule CC(=O)C1=C(C)N(c2ccccc2)C2(O)C=CC(=O)C3=C(O)c4ccccc4C(=O)C312 (stereo unspecified) with its measured log10 TGI.
1.60

* * *

So I've got a bunch of molecules here, and I need their TGI values.
# Tested on: MDA-MB-231 breast
# assay protocol: NCI tumour cell line growth inhibition, 48 h

Annotate the molecule `CNC(=O)c1cc2c(Oc3ccc(NC(=S)NC(=O)Cc4ccccc4)cc3F)ccnc2cc1OC` with its measured TGI.
> 100 µM

Annotate the molecule `COc1ccc(-c2nc(-c3nc4ccc(C(F)(F)F)cc4[nH]3)c3ccccn23)cc1` with its measured TGI.
> 100 µM

Annotate the molecule `CCCC#CCOC(=O)c1cc([N+](=O)[O-])cc([N+](=O)[O-])c1` with its measured TGI.
> 100 µM

Annotate the molecule CC(C)(SCc1ccccc1)C(N)C(=O)O (stereo not given) with its measured TGI.
> 100 µM

Annotate the molecule CSc1nc(N)c2c(n1)NC(c1ccccc1)C1CCc3ccccc3C1=N2 (stereo not given) with its measured TGI.
> 100 µM

Annotate the molecule CCc1ncnc2cc(OCC3CO3)c(OC)cc12 (stereo not given) with its measured TGI.
60.9 µM

Annotate the molecule `Nc1cc2nc3ccccc3oc-2cc1=O` with its measured TGI.
> 100 µM

Annotate the molecule `O[C@H]1[C@H](O)[C@@H](Cn2nnc(-c3ccccc3)c2-c2ccccc2)OCO[C@@H]1Cn1nnc(-c2ccccc2)c1-c1ccccc1` with its measured TGI.
16.4 µM

Annotate the molecule `COc1ccc(C#CC2=C(c3cc(OC)c(OC)c(OC)c3)C(=O)OC2)cc1` with its measured TGI.
> 50 µM

Annotate the molecule `Cc1cc(=O)c2ccccc2n1CCCCCCCCCCn1c(C)cc(=O)c2ccccc21` with its measured TGI.
> 100 µM
